Data provenance: patent US20250206836A1

Target: purified biotin-tagged human CD36 (human, UniProt P16671 30-439, limits assumed, biotin tag, site not stated)
Sequence (P16671 30-439 limits assumed): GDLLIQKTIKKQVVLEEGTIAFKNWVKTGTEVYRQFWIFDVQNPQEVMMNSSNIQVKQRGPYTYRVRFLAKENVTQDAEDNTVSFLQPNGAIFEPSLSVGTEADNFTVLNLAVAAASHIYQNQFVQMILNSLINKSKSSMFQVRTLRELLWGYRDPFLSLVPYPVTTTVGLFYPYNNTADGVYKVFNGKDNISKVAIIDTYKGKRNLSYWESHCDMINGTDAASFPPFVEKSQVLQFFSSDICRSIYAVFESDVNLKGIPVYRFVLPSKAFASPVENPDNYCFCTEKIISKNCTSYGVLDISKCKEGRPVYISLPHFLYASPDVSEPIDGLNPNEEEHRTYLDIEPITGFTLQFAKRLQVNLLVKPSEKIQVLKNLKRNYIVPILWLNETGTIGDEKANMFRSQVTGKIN
Assay: AlphaScreen competition; competitor 1G04 on acceptor beads;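 note: streptavidin donor beads excited at 680 nm release singlet oxygen, and the light signal needs a nearby acceptor bead, with 30 min donor-bead incubation at 25 °C in the dark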
Provide the reported pEC50 of each item.
One number for each entry, as −log10 of the molar value.

These solved cases illustrate the format of a correct answer.
[[record]]
binder = "28G04 (antibody, human IgG1, V domains shown, Chimeric: mouse variable regions on human IgG1 LALA (L234A/L235A); also called 028G04) VH: EVQLQQSGPELVKPGASVKISCKTSGYTFTEYTIHWVKQSHGKSLEWIGGIIPNNGGSSHKQNFKDKATLTVDKSSSTAYMELRSLTSEDSAVYYCARAGDYAFDYWGQGTTLTVSS VL: ETTVTQSPASLSMAIGEKVTIRCITSTDIDDDMNWYQQKPGEPPKLLISEGNTLRPGVPSRFSSSGYGTDFVFTIENMLSEDVADYYCLQSGTLPFTFGSGTKLEIK"
measured = 8.33

[[record]]
binder = "15G04 (antibody, human IgG1, V domains shown, Chimeric: mouse variable regions on human IgG1 LALA (L234A/L235A); also called 015G04) VH: QVQLQQSGPELVKPGASVKISCKASGYTFSTSWMNWVKQRPGQGLEWIGRIYPGDGDTNYNGKFKGKATLTADTSSSTAYMQLSSLTSVDSAVYFCAREVYYGGYEDYGMDYWGQGTSVTVSS VL: DVVMTQTPLSLPVSLGDQASISCRSSQSLLHTNVNTYLHWYLQKPGQSPKLLIYKVSNRFSGVPDRFSGSGSGTDFTLKISRVEAEDLGVYFCSQSTHVPYTFGGGTKLEIK"
measured = 9.39

[[record]]
binder = "22G04 (antibody, human IgG1, V domains shown, Chimeric: mouse variable regions on human IgG1 LALA (L234A/L235A)) VH: QVQLQQPGAELVKPGASVKLSCKASGYTFTSYWMHWVKQRPGQGLEWIGEIDPSDSHANYNQKFKGKATLTVDKSSSTAYMQLSSLTSEDSAVYYCAPIHYGLDNWGQGTTLTVSS VL: DIVLTQSQKFMSTSVGDRVSVTCKASQNVGTNVAWYQQKPGQSPKALIYSASYRYSGVPDRFTGSGSGTDFTLTISNVQSEDLAEYFCQQYNSYPLTFGAGTKLELK"
measured = 9.28


Answer for every listed entry: what is its pEC50? The entries follow.
1. 16G04 (antibody, human IgG1, V domains shown, Chimeric: mouse variable regions on human IgG1 LALA (L234A/L235A); also called 016G04) VH: EVQLQQSGPELVKPGASVKISCKTSGYTFTEYTMHWVKQSHGKSLEWIGGINPYNGGTAYNQKFKNKATLTVDISSNTAFMEFRSLTSEDSAVYYCASDYFYGDANPWFAYWGQGTLVTVSA VL: ETTVTQSPASLSMAIGEKVTIRCITSTDIDDDMNWYQQKPGEPPKLLISEGNTLRPGVPSRFSSSGYGTDFVFTIENMLSEDVADYYCLQSDNLPLTFGAGTKLELK
2. 26G04 (antibody, human IgG1, V domains shown, Chimeric: mouse variable regions on human IgG1 LALA (L234A/L235A)) VH: QVQMKESGAELMKPGASVKISCKATGYIFSNYWIEWLKERPGHGLEWIGDFLPGSSSANYNEKFKGKATFTADTSSNTAYMQLSSLTSEDSAVYYCVPFTVEVTDAMDYWGQGTSVTVSS VL: DIVLTQSHKFMSTSVGDRVSITCKASQDVSTAVAWYQQKPGQSPKLLIYSASYRYTGVPDRFTGSGSGTDFTFTISSVQAEDLAVYYCQQHYSTPRTFGGGTKLEIK
3. 17G04 (antibody, human IgG1, V domains shown, Chimeric: mouse variable regions on human IgG1 LALA (L234A/L235A)) VH: EVQLQQSGPELVKPGASVKISCKTSGYTFTEYTMHWVKQSHGKSLEWIGGIYPYNGGTAYNQKFKNKATLTVDISSNTAYMALRSLASDDSAVYYCASDYFYGDGYPWFTYWGQGTLVTVSA VL: ETTVTQSPASLSVATGEKVTIRCITSTDIDDDMNWYQQRPGEPPNLLISEGNTLRPGVPSRFSSSGYGTDFVFTIENTLSEDVADYYCLQSDNLPFTFGSGTRLEIK
4. 14G04 (antibody, human IgG1, V domains shown, Chimeric: mouse variable regions on human IgG1 LALA (L234A/L235A); also called 014G04) VH: QVQLQQSGAELVRSGASVRLSCTASGFNIKDYYIHWVKQRPEQGLEWIGWIDPENGDTEYAPRFQDKATMTADTSSNTAYLQLSSLTSEDTAVYYCNGWLLSGNGMDYWGQGTSVTVSS VL: DIVMTQSHKFMSTSVGDRVSITCKASQDVGTAVAWYQQKPGQSPKLLIYWASTRHTGVPDRFTGSGSGTDFTLTISNVQSEDLADYFCQQYSSYPTFGGGTKLEIK
5. 38G04 (antibody, human IgG1, V domains shown, Chimeric: chicken variable regions on human IgG1 LALA (L234A/L235A); also called 038G04) VH: AVTLDESGGGLQTPGRALSLVCKASGFTFSSYNMFWVRQAPGKGLEWVAGIDDDGSFTLYGAAVKGRATISRDNGQSTVRLQLNNLRAEDTGTYYCARDSGAVSIDAWGHGTEVIVSS VL: ALTQPSSVSANPGETVKITCSGGDSDYGWYQQKSPGSAPVTVIYQNDKRPSDIPSRFSGSASGSTATFTITGVQAEDEAVYYCGGWDGSYDGAVFGAGTTLTVL
6. 9G04 (antibody, human IgG1, V domains shown, Chimeric: mouse variable regions on human IgG1 LALA (L234A/L235A); also called 09G04; 009G04) VH: QVQLQQSGAELVRPGASVTLSCKASGYTFTDYEMHWVKQTPVHGLEWIGTVDPETGGTAFNQKFKDKASLTADKSSSTVYMELRSLTSEDSAVYYCSRGYGNYGAWFAYWGQGTLVTVSA VL: ETTVTQSPASLSVATGEKVTIRCITSTDIDDDMNWYQQKPGEPPKLLISEGNTLRPGVPSRFSSSGYGTDFVFTIENMLSEDVADYYCLQSDNLPFTFGSGTKLEIK

Solution:
1. 8.04
2. 9.34
3. 9.28
4. 9.51
5. 8.84
6. 8.69

Notebook: 25G04 (antibody, human IgG1, V domains shown, Chimeric: mouse variable regions on human IgG1 LALA (L234A/L235A)) VH: EVQLQQSGAELVKPGASVKLSCKASGYTFTSYWMHWVKQRPGQGLEWIGEIDPSDSHANYNQKFKGKATLTVDKSSSTAYMQLSSLTSEDSAVYYCAPIYYGLDNWGQGTTLTVSS VL: DIVLTQSQKFMSTSVGDRVSVTCKASQNVGTNVAWYQQKPGQSPKALIYSASYRYSGVPDRFTGSGSGTDFTLTISNVQPEDLAEYFCQQYNSYPLTFGGGTKLEIK , pEC50 read as 9.54
